Form field: pEC50 (one value per entry).
Biological target: cardiac sodium channel (Rattus norvegicus, UniProt P15389)
Sequence (P15389 whole entry): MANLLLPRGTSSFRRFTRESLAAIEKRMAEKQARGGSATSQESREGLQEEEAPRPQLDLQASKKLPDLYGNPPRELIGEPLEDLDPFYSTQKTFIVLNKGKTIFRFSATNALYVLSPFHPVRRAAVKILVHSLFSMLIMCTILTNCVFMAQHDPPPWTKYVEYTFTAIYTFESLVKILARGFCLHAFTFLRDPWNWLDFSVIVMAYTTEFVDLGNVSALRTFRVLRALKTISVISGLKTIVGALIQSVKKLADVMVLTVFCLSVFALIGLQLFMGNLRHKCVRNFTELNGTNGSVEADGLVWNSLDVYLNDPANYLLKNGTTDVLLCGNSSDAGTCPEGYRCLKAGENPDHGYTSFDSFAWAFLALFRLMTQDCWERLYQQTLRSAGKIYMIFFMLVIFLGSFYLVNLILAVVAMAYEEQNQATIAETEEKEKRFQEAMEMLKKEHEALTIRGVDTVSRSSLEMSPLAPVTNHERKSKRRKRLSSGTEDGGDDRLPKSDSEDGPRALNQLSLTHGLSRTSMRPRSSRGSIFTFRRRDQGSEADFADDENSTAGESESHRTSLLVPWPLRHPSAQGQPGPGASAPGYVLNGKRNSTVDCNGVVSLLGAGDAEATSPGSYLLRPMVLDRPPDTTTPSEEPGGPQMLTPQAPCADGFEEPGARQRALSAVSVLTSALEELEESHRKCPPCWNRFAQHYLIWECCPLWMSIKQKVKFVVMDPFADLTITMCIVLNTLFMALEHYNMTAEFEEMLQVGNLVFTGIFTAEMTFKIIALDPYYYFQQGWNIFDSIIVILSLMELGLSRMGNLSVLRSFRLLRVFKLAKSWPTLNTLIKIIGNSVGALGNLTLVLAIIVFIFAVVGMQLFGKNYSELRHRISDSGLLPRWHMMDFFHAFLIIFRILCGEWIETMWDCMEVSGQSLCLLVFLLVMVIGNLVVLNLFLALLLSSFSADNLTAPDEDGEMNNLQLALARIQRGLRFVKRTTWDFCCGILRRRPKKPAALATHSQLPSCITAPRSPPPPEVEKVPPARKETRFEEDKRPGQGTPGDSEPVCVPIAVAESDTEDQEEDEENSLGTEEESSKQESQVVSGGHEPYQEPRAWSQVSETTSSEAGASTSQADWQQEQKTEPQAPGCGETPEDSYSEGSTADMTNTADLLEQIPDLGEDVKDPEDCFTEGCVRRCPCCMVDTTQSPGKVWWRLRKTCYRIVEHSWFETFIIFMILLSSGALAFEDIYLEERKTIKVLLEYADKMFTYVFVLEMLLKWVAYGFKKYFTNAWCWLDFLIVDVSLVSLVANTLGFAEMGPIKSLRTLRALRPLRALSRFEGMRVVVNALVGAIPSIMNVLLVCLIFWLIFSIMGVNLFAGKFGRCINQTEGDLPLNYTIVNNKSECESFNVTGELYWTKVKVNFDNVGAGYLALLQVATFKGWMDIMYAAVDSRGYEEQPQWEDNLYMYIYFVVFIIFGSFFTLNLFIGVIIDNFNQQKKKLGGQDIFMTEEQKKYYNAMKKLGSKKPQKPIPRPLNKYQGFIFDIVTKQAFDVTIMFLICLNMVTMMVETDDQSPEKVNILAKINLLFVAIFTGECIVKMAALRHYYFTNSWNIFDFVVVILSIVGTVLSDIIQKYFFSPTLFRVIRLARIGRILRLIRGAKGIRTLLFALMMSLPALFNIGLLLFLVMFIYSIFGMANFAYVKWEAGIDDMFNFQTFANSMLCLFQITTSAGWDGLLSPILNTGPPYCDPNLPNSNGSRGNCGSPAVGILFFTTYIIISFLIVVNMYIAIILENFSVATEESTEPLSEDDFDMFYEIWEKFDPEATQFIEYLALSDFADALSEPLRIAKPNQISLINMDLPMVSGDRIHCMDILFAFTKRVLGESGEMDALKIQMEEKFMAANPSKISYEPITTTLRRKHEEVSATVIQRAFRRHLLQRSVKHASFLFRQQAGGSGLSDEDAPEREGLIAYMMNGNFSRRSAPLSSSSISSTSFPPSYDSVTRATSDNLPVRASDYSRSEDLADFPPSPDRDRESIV
Assay: Whole cell voltage clamp tests, single isolated adult rat cardiac cells
Type: cell-based
pEC50: −log10 of the molar value. Structures can show the parent of a compound that is named as a salt.

[[record]]
molecule = "O=C(Cc1ccccc1)O[C@@H]1CCCC[C@H]1N1CCOCC1 (relative stereo) [Compound #10, monohydrochloride]"
valueobserved = "< 3.52"


In: Recorded pEC50 for O=C(COc1ccc(Cl)c(Cl)c1)O[C@@H]1CCCC[C@H]1N1CCCC1 (relative stereo) [Compound #1, monohydrochloride] with cardiac sodium channel (Rattus norvegicus, UniProt P15389), please?
Out: 3.70

In: Query pEC50 on cardiac sodium channel (Rattus norvegicus, UniProt P15389) for O=C(COc1ccc(Cl)c(Cl)c1)O[C@@H]1CCCC[C@H]1N1CC2CCC(CC2)C1 (relative stereo) [Compound #3, monohydrochloride]
Out: < 3.82

----------
Molecular target: cardiac sodium channel (Rattus norvegicus)
Assay: ECG parameters in anesthetized rats (RSh, PR, QRS; cardiac sodium channel blockade)
Type: in vivo
Conditions: i.v. bolus, RSh
Counter-ions that a name gives are not always drawn.
Listed here are compounds together with their documented ED25 RSh (dose required to produce a 25% increase).
Field format: number, assumed µmol/kg, no unit text.

Some compounds with recorded ED25 RSh (dose required to produce a 25% increase):
[[record]]
compound = "Cl.O=C(Cc1cccc2sccc12)O[C@@H]1CCCC[C@H]1N1CCOCC1 (racemic)"
testedtarget = "cardiac sodium channel (Rattus norvegicus)"
valueobserved = 23

[[record]]
compound = "O=C(Cc1ccccc1)O[C@@H]1CCCC[C@H]1N1CCOCC1 (relative stereo) [Compound #10, monohydrochloride]"
testedtarget = "cardiac sodium channel (Rattus norvegicus)"
valueobserved = 16

[[record]]
compound = "Cl.O=C(Cc1csc2ccccc12)O[C@@H]1CCCC[C@H]1N1CCOCC1 (racemic)"
testedtarget = "cardiac sodium channel (Rattus norvegicus)"
valueobserved = 100


Next, consider the following compound.
In: Using the record for O=C(COc1ccc(Cl)c(Cl)c1)O[C@@H]1CCCC[C@H]1N1CCOCC1 (relative stereo) [Compound #4, monohydrochloride] , report its ED25 RSh (dose required to produce a 25% increase).
Out: 10

----------
Target: cardiac sodium channel (Rattus norvegicus)
Assay: Electrical stimulation of left ventricle in rats (iT, VFT; cardiac sodium channel blockade)
Format: in vivo
Details: infusion rate for 25% increase from control; anesthetized rats
Where a name gives a salt, the structure may show the parent alone.
Quick list: ED25 VFT (fibrillation threshold current) per entry.
Form entry: value (µmol/kg/min) — number only.

[[record]]
compound = "O=C(COc1ccc(Cl)c(Cl)c1)O[C@@H]1CCCC[C@H]1N1CCCC1 (relative stereo) [Compound #1, monohydrochloride]"
valueobserved = 3

[[record]]
compound = "Cl.O=C(Cc1csc2ccccc12)O[C@@H]1CCCC[C@H]1N1CCOCC1 (racemic)"
valueobserved = 9

[[record]]
compound = "O=C(Cc1ccc([N+](=O)[O-])cc1)O[C@@H]1CCCC[C@H]1N1CCOCC1 (relative stereo) [Compound #12, monohydrochloride]"
valueobserved = 5


Would you kindly look at the next entry?
In: Returns the measured ED25 VFT (fibrillation threshold current) for the input compound. Input: Cl.O=C(Cc1cccc2sccc12)O[C@@H]1CCCC[C@H]1N1CCOCC1 (racemic)
Out: 2

----------
Readings of ED25 QRS (dose required to produce a 25% increase) for the listed compounds
Target: cardiac sodium channel (Rattus norvegicus)
Assay: ECG parameters in anesthetized rats (RSh, PR, QRS; cardiac sodium channel blockade)
Format: in vivo
Settings: i.v. bolus, QRS interval
Structures can show the parent of a compound that is named as a salt.
Note: unit µmol/kg is implicit; provide only the numeric part.

Record excerpt, results attached:
[[record]]
compound = "O=C(COc1ccc(Cl)c(Cl)c1)O[C@@H]1CCCC[C@H]1N1CCCCCC1 (relative stereo) [Compound #5, monohydrochloride]"
testedtarget = "cardiac sodium channel (Rattus norvegicus)"
unitofmeasurement = "µmol/kg"
valueobserved = 66

[[record]]
compound = "O=C(Cc1ccc([N+](=O)[O-])cc1)O[C@@H]1CCCC[C@H]1N1CCOCC1 (relative stereo) [Compound #12, monohydrochloride]"
testedtarget = "cardiac sodium channel (Rattus norvegicus)"
unitofmeasurement = "µmol/kg"
valueobserved = 82

[[record]]
compound = "Cl.O=C(O[C@@H]1CCCC[C@H]1N1CCOCC1)c1cccc2ccccc12 (racemic)"
testedtarget = "cardiac sodium channel (Rattus norvegicus)"
unitofmeasurement = "µmol/kg"
valueobserved = 90

[[record]]
compound = "O=C(Cc1cccc2ccccc12)O[C@@H]1CCCC[C@H]1N1CCOCC1 (relative stereo) [Compound #8, monohydrochloride]"
testedtarget = "cardiac sodium channel (Rattus norvegicus)"
unitofmeasurement = "µmol/kg"
valueobserved = 42

[[record]]
compound = "Cl.O=C(Cc1cccc2sccc12)O[C@@H]1CCCC[C@H]1N1CCOCC1 (racemic)"
testedtarget = "cardiac sodium channel (Rattus norvegicus)"
unitofmeasurement = "µmol/kg"
valueobserved = 690


In: ED25 QRS (dose required to produce a 25% increase) of O=C(COc1ccc(Cl)c(Cl)c1)O[C@@H]1CCCC[C@H]1N1CC2CCC(CC2)C1 (relative stereo) [Compound #3, monohydrochloride] on cardiac sodium channel (Rattus norvegicus)?
Out: 130

----------
Target: UniProt:P15389
Test: ECG parameters in anesthetized rats (RSh, PR, QRS; cardiac sodium channel blockade)
Format: in vivo
Conditions: i.v. bolus, RSh
Where a name gives a salt, the structure may show the parent alone.
Classify as follows. Reported ED25 RSh (dose required to produce a 25% increase) greater than or equal to 20 µmol/kg: rule met. Reported ED25 RSh (dose required to produce a 25% increase) below: rule not met.

[[record]]
compound = "O=C(COc1ccc(Cl)c(Cl)c1)O[C@@H]1CCCC[C@H]1N1CCCCCC1 (relative stereo) [Compound #5, monohydrochloride]"
class = "rule met"

[[record]]
compound = "O=C(Cc1ccc2ccccc2c1)O[C@@H]1CCCC[C@H]1N1CCOCC1 (relative stereo) [Compound #9, monohydrochloride]"
class = "rule not met"


In: Hello, I need to know if O=C(Cc1ccc([N+](=O)[O-])cc1)O[C@@H]1CCCC[C@H]1N1CCOCC1 (relative stereo) [Compound #12, monohydrochloride] has measured ED25 RSh (dose required to produce a 25% increase) not below 20 µmol/kg. Thanks!
Out: rule not met

In: Please indicate if the recorded ED25 RSh (dose required to produce a 25% increase) for O=C(COc1ccc(Cl)c(Cl)c1)O[C@@H]1CCCC[C@H]1N1CC2CCC(CC2)C1 (relative stereo) [Compound #3, monohydrochloride] meets or exceeds 20 µmol/kg.
Out: rule met

In: Quick check: does O=C(CC1CCCCC1)O[C@@H]1CCCC[C@H]1N1CCCC1 (relative stereo) [Compound #7, monohydrochloride] have ED25 RSh (dose required to produce a 25% increase) greater than or equal to 20 µmol/kg?
Out: rule not met

In: API: above_or_equal(metric=ED25 RSh (dose required to produce a 25% increase), cutoff=20 µmol/kg) for item O=C(Cc1cccc2ccccc12)O[C@@H]1CCCC[C@H]1N1CCOCC1 (relative stereo) [Compound #8, monohydrochloride]
Out: rule not met

In: Hi, just wondering whether O=C(COc1cccc2ccccc12)O[C@@H]1CCCC[C@H]1N1CCCC1 (relative stereo) [Compound #2, monohydrochloride] shows ED25 RSh (dose required to produce a 25% increase) of 20 µmol/kg or higher.
Out: rule not met

In: Answer whether ED25 RSh (dose required to produce a 25% increase) of Cl.O=C(O[C@@H]1CCCC[C@H]1N1CCOCC1)c1cccc2ccccc12 (racemic) [Compound #15] is greater than or equal to 20 µmol/kg.
Out: rule met

In: Is ED25 RSh (dose required to produce a 25% increase) for O=C(COc1ccc(Cl)c(Cl)c1)O[C@@H]1CCCC[C@H]1N1CCCC1 (relative stereo) [Compound #1, monohydrochloride] at or above 20 µmol/kg?
Out: rule not met

----------
Tested on: cardiac potassium channel
Test: ECG parameters in anesthetized rats (QT; ancillary cardiac potassium channel blockade)
Assay type: in vivo, rat
Details: i.v. bolus, Q-T interval
Counter-ions that a name gives are not always drawn.
The following compounds are listed with their measured ED25 QT (dose required to produce a 25% increase) values.
The answer is to be given in µmol/kg; state only the numeric part.

[[record]]
compound = "Cl.O=C(Cc1csc2ccccc12)O[C@@H]1CCCC[C@H]1N1CCOCC1 (racemic)"
valueobserved = 79

[[record]]
compound = "O=C(Cc1cccc2ccccc12)O[C@@H]1CCCC[C@H]1N1CCOCC1 (relative stereo) [Compound #8, monohydrochloride]"
valueobserved = 57

[[record]]
compound = "O=C(Cc1ccccc1)O[C@@H]1CCCC[C@H]1N1CCOCC1 (relative stereo) [Compound #10, monohydrochloride]"
valueobserved = 25

[[record]]
compound = "O=C(Cc1ccc([N+](=O)[O-])cc1)O[C@@H]1CCCC[C@H]1N1CCOCC1 (relative stereo) [Compound #12, monohydrochloride]"
valueobserved = 44


In: # lookup: ED25 QT (dose required to produce a 25% increase) of O=C(COc1ccc(Cl)c(Cl)c1)O[C@@H]1CCCC[C@H]1N1CCCC1 (relative stereo) [Compound #1, monohydrochloride]
Out: 78

In: Report ED25 QT (dose required to produce a 25% increase) for O=C(COc1cccc2ccccc12)O[C@@H]1CCCC[C@H]1N1CCCC1 (relative stereo) [Compound #2, monohydrochloride] please.
Out: 53
